Target: UniProt:Q06187
Sequence (Q06187 whole entry): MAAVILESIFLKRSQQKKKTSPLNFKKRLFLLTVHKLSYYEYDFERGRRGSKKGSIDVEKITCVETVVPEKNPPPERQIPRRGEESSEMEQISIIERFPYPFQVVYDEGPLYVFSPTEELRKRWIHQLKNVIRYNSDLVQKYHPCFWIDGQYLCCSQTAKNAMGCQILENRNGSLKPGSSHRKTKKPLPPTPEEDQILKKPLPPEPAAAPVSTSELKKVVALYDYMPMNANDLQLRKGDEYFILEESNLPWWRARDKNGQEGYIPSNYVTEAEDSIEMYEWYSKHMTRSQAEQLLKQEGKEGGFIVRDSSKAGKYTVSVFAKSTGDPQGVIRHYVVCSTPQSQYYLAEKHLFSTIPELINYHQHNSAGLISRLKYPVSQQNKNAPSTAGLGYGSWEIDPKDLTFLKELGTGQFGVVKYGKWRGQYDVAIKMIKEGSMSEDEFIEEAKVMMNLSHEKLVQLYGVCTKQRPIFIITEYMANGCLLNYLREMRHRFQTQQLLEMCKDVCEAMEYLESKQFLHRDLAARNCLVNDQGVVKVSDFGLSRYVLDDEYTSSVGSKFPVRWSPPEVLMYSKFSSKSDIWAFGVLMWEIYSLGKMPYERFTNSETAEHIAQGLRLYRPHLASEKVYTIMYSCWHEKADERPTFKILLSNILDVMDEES
Assay: BTK cell degradation in TMD-8 cells, HTRF assay
Assay type: cell-based
Design: endogenous in cells; host or cells: TMD-8 cells
Conditions: 6 h treatment, IC50 (DC50) of BTK degradation
test.readout: DC50 (nM)

A: Cc1cccc(NC(=O)c2ncc(-c3nn4c(c3C(N)=O)Nc3ccc(N5CCN(CCc6cc(F)c(C7CCC(=O)NC7=O)c(F)c6)CC5)cc3CC4)cc2C)n1 (stereo not shown) [Example B33]
B: Cc1c(C(=O)Nc2ncn(C)n2)ccc(-c2nn3c(c2C(N)=O)Nc2ccc(N4CCN(CC5CCN(c6ccc(N7CCC(=O)NC7=O)cc6)CC5)CC4)cc2CC3)c1F [Example B84]
C: Cc1cc(-c2nn3c(c2C(N)=O)Nc2ccc(N4CCN(CC5CCN(c6ccc(N7CCC(=O)NC7=O)cc6)CC5)CC4)cc2CC3)ccc1C(=O)Nc1cc(C(F)(F)F)ccn1 [Example B5]
D: Cc1cccc(NC(=O)c2ccc(-c3nn4c(c3C(N)=O)Nc3ccc(N5CCN(C6CN(C7CN(c8ccc9c(c8)C(=O)N(C8CCC(=O)NC8=O)C9=O)C7)C6)CC5)cc3CC4)c(F)c2C)n1 (stereo not shown) [Example B57]
E: COc1ccc(C(F)(F)F)cc1C(=O)NCc1ccc(-c2nn3c(c2C(N)=O)Nc2ccc(N4CCN(CC5CCN(c6ccc(N7CCC(=O)NC7=O)cc6)CC5)CC4)cc2CC3)cc1C [Example C11]
Sort the 5 molecules by DC50; largest first, smallest last. Answer by listing the labels in the requested order.
A, E, B, C, D
(A: 17.6 nM, E: 3.36 nM, B: 2.32 nM, C: 1.46 nM, D: 0.526 nM)

I: Cc1nc(NC(=O)c2ccc(-c3nn4c(c3C(N)=O)Nc3ccc(N5CCN(CC6CN(c7ccc(N8CCC(=O)NC8=O)cc7)C6)CC5)cc3CC4)c(F)c2C)ccc1Cl [Example B53]
II: NC(=O)c1c(-c2ccc(Oc3ccccc3)cc2)nn2c1Nc1ccc(C(=O)N3CCC(CN4CCN(c5cc6c(cc5F)C(=O)N(C5CCC(=O)NC5=O)C6=O)CC4)CC3)cc1CC2 (stereo not shown) [Example A14]
III: COc1ccc(C(F)(F)F)cc1C(=O)NCc1ccc(-c2nn3c(c2C(N)=O)Nc2ccc(N4CCN(CC5CCN(c6ccc(N7CCC(=O)NC7=O)cc6)CC5)CC4)cc2CC3)c(F)c1 [Example C24]
IV: NC(=O)c1c(-c2ccc(C(=O)Nc3nccc(C(F)(F)F)c3F)cc2)nn2c1Nc1ccc(N3CCN(CC4CCN(c5ccc(N6CCC(=O)NC6=O)cc5)CC4)CC3)cc1CC2 [Example B13]
With regard to DC50, arrange the entries in ascending order, please. A ranking is expressed here by listing the labels in the requested order.
IV, III, II, I
(IV: 0.408 nM, III: 2.11 nM, II: 3.22 nM, I: 18.6 nM)
